- Organism: Homo sapiens
- test protocol: Concentration which cause half-maximal growth inhibition of human A549 lung carcinoma cell line
- Format: functional
measured quantity: pIC50
The quantity pIC50 is defined as the negative base-10 logarithm of the molar concentration.

Returns the measured pIC50 for the input compound. Input: CCCCCCCC(=O)O[C@@H]1CC[C@H](O)C[C@H]1OC(=O)CCCCCCC 4.37

Queued: CCCCCCCC(=O)O[C@H]1CC[C@H](O)C[C@H]1OC(=O)CCCCCCC 4.31

Repeat for the following compound: CCCCCCCC(=O)O[C@H]1CC[C@H](O)C[C@@H]1OC(=O)CCCCCCC 4.24

Now the compound CCCCCCCC/C=C\CCCCCCCC(=O)OCC(CO)OC(C)=O (stereo not given) 4.15

And then CCCCCCCC(=O)OC[C@@H](CO)OC(=O)CCCCCCC , what is it? 4.36

# credit: ChEMBL document CHEMBL1124395
